Cited source: patent US20070099232A1

system: BtEcR; experiment: BtEcR competitive binding assay with [3H]-ponasterone A as tracer; parameters: species or system Bemisia tabaci
endpoint name: binding in BtEcR competitive binding assay

Worked examples follow.
| compound | result |
| --- | --- |
| CCc1ccc(C(=O)NN(C(=O)c2cc(C)cc(C)c2)C(C)(C)C)cc1 [RH5992] | negligible binding |
| CC(C)(C)N(NC(=O)c1ccccc1)C(=O)c1ccccc1 [compound I] | negligible binding |
| CC(C)(C)C(=O)N1N=C(c2ccccc2)OC1(C)c1ccc(F)cc1 (centres unmarked) [compound II] | negligible binding |
| O=C1OC(c2cccs2)=N/C1=C/c1ccccc1 [compound III] | weak-moderate binding |

Here's the next entry for you.
Sample O=C(CSC1NCCN1)c1ccccc1 [IV] — what was its binding in BtEcR competitive binding assay?
weak-moderate binding

----------
biological target: recombinant B. tabaci receptor LBD (BtEcR/BtUSP heterodimer); test: Equilibrium binding studies with [3H]-ponasterone A as ligand; set-up: species or system Bemisia tabaci; conditions: by direct curve fitting, recombinant heterodimeric LBD
endpoint name: Kd (nM)
One number for each entry, in nM.

Sample `CC(C)CC[C@@H](O)[C@](C)(O)[C@H]1CC[C@@]2(O)C3=CC(=O)[C@@H]4C[C@@H](O)[C@@H](O)C[C@]4(C)[C@H]3CC[C@]12C` — what was its Kd?
1.21
